Biological target: binding partner of C5A (XPA23)
Experiment: Biacore
For each record, write down the corresponding fold difference in affinity vs original.
Please don't drop the unit; write it after the number.

Answer with the recorded fold difference in affinity vs original for the binder listed here: C5A (XPA23) VH N104A (antibody, V domains shown) VH: EVQLLESGGGLVQPGGSLRLSCAASGFTFSKYFMFWVRQAPGKGLEWVSVISPSGGMTRYADSVKGRFTISRDNSKNTLYLQMNSLRAEDTAVYYCARVGYGGASDYWGQGTLVTVSS VL: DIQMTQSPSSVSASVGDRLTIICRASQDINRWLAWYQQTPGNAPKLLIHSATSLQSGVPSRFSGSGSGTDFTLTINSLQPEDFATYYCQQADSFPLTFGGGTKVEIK
1.61 fold

Answer with the recorded fold difference in affinity vs original for the binder listed here: C5A (XPA23) VH T58A (antibody, V domains shown) VH: EVQLLESGGGLVQPGGSLRLSCAASGFTFSKYFMFWVRQAPGKGLEWVSVISPSGGMARYADSVKGRFTISRDNSKNTLYLQMNSLRAEDTAVYYCARVGYGGNSDYWGQGTLVTVSS VL: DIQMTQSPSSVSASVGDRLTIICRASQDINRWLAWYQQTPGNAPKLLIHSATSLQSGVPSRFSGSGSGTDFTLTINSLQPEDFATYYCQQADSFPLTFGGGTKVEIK
0.14 fold
